- measured target: hPPARgamma (Homo sapiens)
- Construct: Gal4-hPPARγ(LBD); Gal4 (fusion partner)
- Sequence (P37231 238-503 limits assumed): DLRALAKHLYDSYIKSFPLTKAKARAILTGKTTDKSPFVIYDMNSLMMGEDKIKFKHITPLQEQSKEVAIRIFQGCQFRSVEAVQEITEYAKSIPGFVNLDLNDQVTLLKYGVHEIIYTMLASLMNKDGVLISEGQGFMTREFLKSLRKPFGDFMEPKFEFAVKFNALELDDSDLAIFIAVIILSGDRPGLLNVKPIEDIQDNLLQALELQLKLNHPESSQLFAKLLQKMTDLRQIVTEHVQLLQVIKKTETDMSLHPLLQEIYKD
- measurement notes: Gal4-hPPARgamma transactivation assay in COS-7 cells (luciferase)
- assay setup: Gal4-hPPARγ(LBD) transactivation
Assign EC50 to each entry below.
Express the result in µM but write the number alone.

Enquiry: State its EC50 for this compound: COc1cc(OC(F)(F)F)ccc1C(OC)C1CC1c1cc(C)c(OC(C)(C)C(=O)O)c(C)c1 (racemic)
Return: 0.012

Enquiry: State, in one line, measured EC50 of COC(c1ccc(OC(F)(F)F)cc1)C1CC1c1ccc(OC(C)(C)C(=O)O)c(C2CC2)c1 (racemic)
Return: 0.828

Enquiry: Look up and report measured EC50 for this entry: CCCCCCOc1ccccc1C(OC)C1CC1c1cc(C)c(OC(C)(C)C(=O)O)c(C)c1 (racemic)
Return: 0.026

Enquiry: Please supply the value of reported EC50 for the item COC(c1ccc(OC(F)(F)F)cc1)C1CC1c1ccc(OC(C)(C)C(=O)O)c(C(C)C)c1 (single isomer, unassigned) [Cpd 15-1]
Return: 0.066
